test: Primary qHTS for delayed death inhibitors of the malarial parasite plastid, 48 hour incubation; conditions: P. falciparum luciferase growth in erythrocytes; series mostly up to 28.7 µM
The campaign covered roughly 310,000 compounds. About 18,000 (5.8%) were called active. Inconclusive results (about 22%) are left out. Calls come from the whole dose curve; as a rule, active = well fitted inhibition curve with a large enough effect; inconclusive = small, poorly fitted or top-dose-only effect, or another doubt; inactive = no such curve, though single readings can be large or run the other way. For the sample, actives were picked, then their nearest neighbours and some compounds at random.
Valid outcomes are listed here; reply with one: active, inactive

Hi, do you know how CCCn1cc(S(=O)(=O)c2ccc(C)cc2)c(=O)c2cc(OCC)ccc21 came out in this test?
inactive

Please share the test call associated with Cc1coc2c(O)cc3c(c12)OC1(N2CCCCC2)C(=O)NCCCC31 (centres undefined) .
active

What did this assay record as the result for COc1ccc(-c2[nH]ncc2CN(C)Cc2c(C)n[nH]c2C)c(OC)c1 ?
inactive

Outcome? CCc1cc2c(=O)c(-c3ccc(F)cc3)c(C(F)(F)F)oc2cc1OCC(=O)O
inactive

# fetch the recorded call for CC(=O)c1cccc(NC(=O)CN2C(=O)c3cccnc3Oc3ccc(Cl)cc32)c1 here
active

Hi, sorry to bother you, what did the test record for CNc1nc(Nc2ccc(C)c(Cl)c2)nc(N)c1[N+](=O)[O-] ?
inactive

Called result for Nc1nc(NCC(=O)O)nc(N2CCCCCC2)c1[N+](=O)[O-]
inactive

Tell me the assay call for Cc1ccc2oc(C(=O)N3CCN(C)C[C@@H]3C(C)C)c(C)c2c1 please.
inactive

What was the test verdict on O=C(CSc1nnc2c(n1)[nH]c1ccccc12)NC1CCCCC1 ?
inactive

What did this assay record as the result for COc1ccccc1-c1nc(SC)n[nH]1 ?
inactive

Hi, sorry to bother you, what did the test record for COC(=O)c1cc(OC)ccc1-c1ccc(OC)cc1 ?
inactive

// param item: CCOc1ccc(-c2n[nH]c(C)c2-c2ccccn2)c(O)c1 ; yields the recorded call
inactive

Which result was noted for this molecule in the test: CCN1CCN(Cc2c(O)ccc3c(=O)c(-c4ccc(OC)c(OC)c4)c(C(F)(F)F)oc23)CC1
active

Field: outcome | Entry: Cc1ccc(Cc2nnc(SCC(=O)Nc3ccc(C)cc3C)[nH]c2=O)cc1
inactive

---

assay: Primary qHTS for delayed death inhibitors of the malarial parasite plastid, 48 hour incubation; note: potency is the fitted concentration of half-maximal effect; details: P. falciparum luciferase growth in erythrocytes; series mostly up to 28.7 µM
The whole screen tested about 310,000 compounds, of which about 18,000 (5.8%) were called active. About 22% were inconclusive and are not listed. The full list was thinned out, with actives kept by preference.
readout.label: Potency

- molecule: "Cc1ccc(NC(=O)Nc2ccccc2)c(Br)c1"
  Potency: "inactive"
- molecule: "CN(C)C(=O)N=NC(=O)N(C)C"
  Potency: "inactive"
- molecule: "O=C(NCc1ccco1)/C(=C/c1cccc([N+](=O)[O-])c1)NC(=O)c1ccco1"
  Potency: "inactive"
- molecule: "O=C(N/N=C/c1sc(N2CCCCC2)nc1-c1cccs1)c1cccnc1"
  Potency: "3.29 µM (active)"
- molecule: "CCOc1ccc(-c2nnc(-c3ccco3)o2)cc1"
  Potency: "inactive"

Next molecule, Potency to be filled in.
// sample Cc1cccc(CNS(=O)(=O)c2ccc(-c3cnc(C4CC4)o3)cc2)c1 , its Potency was inactive

---

assay: Primary qHTS for delayed death inhibitors of the malarial parasite plastid, 48 hour incubation; note: potency is the fitted concentration of half-maximal effect; conditions: P. falciparum luciferase growth in erythrocytes; series mostly up to 28.7 µM
Screen size: about 310,000 compounds; about 18,000 (5.8%) were called active. About 22% were inconclusive and are not listed. The full list was thinned out, with actives kept by preference.
readout.label: Potency

// solved cases for Potency follow
- compound: "CCN(C(=O)COC(=O)CCOc1cccc(C)c1)c1c(N)n(Cc2ccccc2)c(=O)[nH]c1=O"
  Potency: "inactive"
- compound: "Cc1ccc(NC(=O)CCCNC(=O)c2ccc(Cl)cc2)cc1S(=O)(=O)N1CCCCC1"
  Potency: "inactive"
- compound: "Cc1cccc(NC(=O)NC2(C)CCS(=O)(=O)C2)c1 (stereo not drawn)"
  Potency: "inactive"
- compound: "COc1cc(Cl)c(C)cc1NC(=O)CN1CCCCCC1"
  Potency: "inactive"
- compound: "COc1cccc(/C=N/Nc2ncc(C(F)(F)F)cc2Cl)c1O"
  Potency: "1.04 µM (active)"

Form field Potency, entry CC(=O)NCCn1c(SCC(=O)Nc2ccc(C)cc2)nc2ccccc2c1=O : inactive

Per the record, CC1CCCN(CC(=O)Nc2cc(Cl)ccc2Oc2ccccc2)C1 (stereo not drawn) has Potency of 14.7 µM (active)

Looking up CN(CCc1ccccc1)c1ccc([N+](=O)[O-])cn1 , I see its Potency listed as inactive

# compound COC(=O)C(C)Oc1ccc2c(c1)O/C(=C\c1cccc(Br)c1)C2=O (stereo not drawn) ; its Potency = 13.1 µM (active)

The compound CN(CC(=O)NCCN1CCOCC1)S(=O)(=O)c1ccc(F)cc1 showed Potency equal to inactive

response.value for N#Cc1c2c(c(N3CCN(CCO)CC3)n3c1nc1ccccc13)CCCC2 (field: Potency) = 0.828 µM (active)

Form: compound = CCN(C(=O)COC(=O)c1sccc1C)c1c(N)n(Cc2ccccc2)c(=O)[nH]c1=O ; Potency = inactive

Notebook: CCc1ccccc1OCC(=O)Nc1ccc2c(c1)OCCO2 , Potency read as inactive

Measured Potency, CCc1nnc(NC(=O)CSc2nc3ccccc3c(=O)n2CCCOC)s1 : inactive

// Potency value for CCCN(CC(=O)Nc1ccccc1C)C(=O)c1ccc2[nH]c3c(c2c1)CC(C)CC3 (stereo not drawn) : 10.4 µM (active)

Please fill in: Potency reported for COc1ccc(NC(=O)NCc2ccc3c(c2)OCO3)c(OC)c1 = inactive

# Potency of CCc1ccccc1OCC(=O)Nc1ccc(C)c(S(=O)(=O)N2CCCCCC2)c1 = 10.4 µM (active)

The compound listed as CC1CCc2sc3nc(N4CCN(CCO)CC4)n4ncnc4c3c2C1 (stereo not drawn) shows Potency equal to inactive

The compound listed as CCOCCCn1c(SCC(=O)Nc2cc(OC)ccc2OC)nc2ccccc2c1=O has a reported Potency of 5.86 µM (active)

Form: compound = Cc1c2cn[nH]c(=O)c2c(C)n1Cc1ccc(F)cc1 ; Potency = 11.7 µM (active)
